- Test system: UO-31 renal
- method.summary: NCI tumour cell line growth inhibition, 48 h
TGI values by entry

molecule	TGI
COc1cc(C[P+](c2ccccc2)(c2ccccc2)c2ccccc2)cc(OC)c1OC	> 100 µM

Problem: Recall and state the measured TGI for Cc1ccc2c(c1)c1ccc3c(c1n2C)C(=O)C=CC3=O .
Solution: 3.17 µM

Problem: Recall and state the measured TGI for COc1cc2c3c(n(C)c(=O)c2cc1OC)-c1cc2c(cc1C3=O)OCO2 .
Solution: > 100 µM

Problem: Recall and state the measured TGI for C=CC12CCN(CC1)C(C(O)c1ccnc3ccc(OC)cc13)C2 (stereo not given) .
Solution: > 100 µM

Problem: Recall and state the measured TGI for COc1ccc(NC(=O)CSc2nnc(-c3ccc(NC(C)=O)cc3)o2)cc1 .
Solution: 33 µM

Problem: Recall and state the measured TGI for CCOc1ccc(OCC(=O)O)c2c1CCCC2=O .
Solution: > 100 µM

Problem: Recall and state the measured TGI for CCc1n[nH]c(=O)n1-c1ccc2ccccc2c1 .
Solution: > 100 µM

Problem: Recall and state the measured TGI for COc1ccc2oc(=N)c(C(=O)Nc3ccccc3)cc2c1 .
Solution: > 100 µM

Problem: Recall and state the measured TGI for CCOC(=O)c1c2cccccc-2nc1Nc1cccc2c(C)ccnc12 .
Solution: > 10 µM

Problem: Recall and state the measured TGI for Nc1nc(Cl)nc2c1ncn2C1CC(O)C(CO)O1 (stereo not given) .
Solution: 8.76 µM

====

- Test system: RPMI-8226 leukemia
- method.summary: NCI tumour cell line growth inhibition, 48 h
TGI values by entry

Worked cases, TGI given:
COc1cc2c(cc1OCCCN1C(=O)c3cccc4cccc(c34)C1=O)N=C[C@@H]1CCCN1C2=O > 50.2 µM
NC(=S)N/N=C/c1ncccc1O > 1000 µM
COc1c(C)c(OCC=C(C)C)cc(CO)c1CO > 100 µM
CN(C)CCN1CCC(Cc2ccccc2)CC1 > 80 µM
COc1cc(O)c2c(=O)c(OC)c(-c3ccc(OC)c(O)c3)oc2c1 > 100 µM

Next compound, TGI to be filled in.
Problem: Recall and state the measured TGI for O=C(c1ccc([N+](=O)[O-])cc1[N+](=O)[O-])N(/N=C/C=C/c1ccccc1)c1nnc(-c2ccccc2)c(-c2ccccc2)n1 .
Solution: > 100 µM

====

- Test system: SK-MEL-2 melanoma
- method.summary: NCI tumour cell line growth inhibition, 48 h
reported.endpoint: TGI

Worked cases, TGI given:
molecule	reported
COc1ccc(C(=O)NCCN(C)C)c2nc3ccccc3cc12	7.46 µM
O=C1CSC2(CC(/C=C/c3cccs3)=NN2c2cccc(S(=O)(=O)O)c2)N1c1nc2ccccc2s1 (configuration not stated)	> 100 µM

Problem: Recall and state the measured TGI for CCOc1ccc(NC(=O)CC2SC(=Nc3ccc(C)cc3C)NC2=O)cc1 (configuration not stated) .
Solution: > 100 µM

Problem: Recall and state the measured TGI for O=[N+]([O-])c1cc2oc(CSc3ccccc3)nc2cc1Cl .
Solution: 51.4 µM

====

- Test system: RXF 393 renal
- method.summary: NCI tumour cell line growth inhibition, 48 h
reported.endpoint: TGI

Worked cases, TGI given:
molecule	TGI
C=CC12CCN(CC1)C(C(O)c1ccnc3ccc(OC)cc13)C2 (stereo not drawn)	> 100 µM
CC(C)=CCC1=C(O)c2ccccc2C(=O)C1=O	> 100 µM

Problem: Recall and state the measured TGI for Clc1sc(Cl)c2c1[C@@H](Cl)C[C@@H]2Br .
Solution: > 100 µM

====

TGI values by entry
- Tested on: MOLT-4 leukemia
- method.summary: NCI tumour cell line growth inhibition, 48 h
Where a SMILES comes first, the peptide text is derived from it. [ ]: non-standard residue; d: D form. The star is where a group is joined. Cbz = O=C(OCc1ccccc1)*; Aib = CC(C)(N)C(=O)O; OBn = c1ccc(CO*)cc1

Worked cases, TGI given:
molecule	subject.of.test	TGI
CNc1nncc2[nH]cnc12	MOLT-4 leukemia	> 100 µM
CNc1[nH]c(=S)nc2sc3c(c12)CCCC3	MOLT-4 leukemia	> 75 µM
COc1cc(O)c2c(=O)c(OC)c(-c3ccc(OC)c(O)c3)oc2c1	MOLT-4 leukemia	> 100 µM
Cc1ccc(/C=C2/N=C(N/N=C\C(O)C(O)C(O)C(O)CO)NC2=O)cc1 (stereo not given)	MOLT-4 leukemia	> 100 µM
Nc1nc(Cl)nc2c1ncn2C1CC(O)C(CO)O1 (stereo not given)	MOLT-4 leukemia	> 79.3 µM
CCOC(=O)/C(C(C)=O)=C(\OC(C)=O)c1ccncc1C(=O)O	MOLT-4 leukemia	> 100 µM
C=CC12CCN(CC1)C(C(O)c1ccnc3ccc(OC)cc13)C2 (stereo not given)	MOLT-4 leukemia	> 100 µM
CNc1cc2oc(=O)cc(C)c2cc1C	MOLT-4 leukemia	> 100 µM
C=C(CN(C)Cc1ccccc1)c1ccc(NC(=O)c2ccc(C(=C)CN(C)Cc3ccccc3)cc2)cc1	MOLT-4 leukemia	> 100 µM
Cc1ccnc(NC(=S)Nc2ccc([N+](=O)[O-])cc2)c1	MOLT-4 leukemia	> 100 µM

Problem: Recall and state the measured TGI for C/C1=C\[C@H](C)C[C@H](C)OC(=O)[C@H](C)NC(=O)[C@@H](Cc2ccc(O)c(Br)c2)N(C)C(=O)[C@H](C)NC(=O)[C@@H](C)C1 .
Solution: > 19.5 µM

Problem: Recall and state the measured TGI for CC(NC(=O)C(C)(C)NC(=O)C(CC(=O)OCc1ccccc1)NC(=O)OCc1ccccc1)C(N)=O (stereo not given) (Cbz-Asp(OBn)-[Aib]-Ala-NH2; configuration not given here) .
Solution: > 100 µM

====

TGI values by entry
- Tested on: HOP-92 NSCLC
- method.summary: NCI tumour cell line growth inhibition, 48 h

molecule	subject.of.test	reported.endpoint	reported
O/N=C1\CCCCC1C(NO)c1ccccc1 (stereo not drawn)	HOP-92 NSCLC	TGI	> 100 µM
CN1CC[C@]2(c3cccc(O)c3)CC(=O)/C(=C/c3ccccc3)[C@@H]1C2	HOP-92 NSCLC	TGI	9.93 µM

Problem: Recall and state the measured TGI for CCOC(=O)Nc1c(C)nc2ccccn12 .
Solution: > 100 µM

Problem: Recall and state the measured TGI for CC12c3c4ccc(C=O)c3Oc3ccc(C=O)c(c31)Oc1ccc(C=O)c(c12)O4 .
Solution: > 25 µM

Problem: Recall and state the measured TGI for O=C1NC(O)CCN1C1OC(CO)C(O)C1O (stereo not drawn) .
Solution: > 250 µM

====

- System: K-562 leukemia
- method.summary: NCI tumour cell line growth inhibition, 48 h
TGI values by entry

Worked cases, TGI given:
compound	reported
C[C@@H]1CCC2[C@@H](C)[C@@H](O[C@H]3O[C@@H]4O[C@@]5(C)CCC6[C@H](C)CCC([C@H]3C)[C@]64OO5)O[C@@H]3O[C@@]4(C)CCC1[C@@]23OO4 (stereo partly drawn)	> 25 µM
O=c1cccc(C#CC#C[C@@H]2O[C@H]2CO)o1	> 100 µM
O=C(CCSC1=NCCCN1)c1ccc(F)cc1	10.1 µM
CO/N=C(/C(=O)OC)c1ccccc1COc1ccccc1C(F)(F)F	> 100 µM
O=c1c2c(no[n+]2[O-])c2ccccc2n1-c1ccccc1	> 46.4 µM

Problem: Recall and state the measured TGI for C=CC1(C)CC(=O)C2(O)C(C)(O1)C(OC(C)=O)C(O)C1C(C)(C)CCC(O)C12C (stereo not drawn) .
Solution: > 150 µM

Problem: Recall and state the measured TGI for COc1ccc(Cl)cc1NC(=O)c1ccc(NC2=C(Cl)C(=O)N(Cc3ccccc3)C2=O)cc1 .
Solution: > 100 µM

Problem: Recall and state the measured TGI for NC(N)=Nc1nc2ccccc2o1 .
Solution: > 100 µM

====

- Tested on: LOX IMVI melanoma
- method.summary: NCI tumour cell line growth inhibition, 48 h
TGI values by entry

Worked cases, TGI given:
compound	TGI
C[C@@H]1CCC2[C@@H](C)[C@@H](O[C@H]3O[C@@H]4O[C@@]5(C)CCC6[C@H](C)CCC([C@H]3C)[C@]64OO5)O[C@@H]3O[C@@]4(C)CCC1[C@@]23OO4 (stereo partly specified)	> 25 µM
CC(C)(C)c1ccc2c(c1)C#Cc1cc3c(cc1OCCCO2)C#Cc1cc(C(C)(C)C)ccc1OCCCO3	> 100 µM
CN1Nc2ccccc2CC1=O	> 100 µM
NNc1ncnc2nc[nH]c12	> 100 µM

Next compound, TGI to be filled in.
Problem: Recall and state the measured TGI for O=C(NN1C(=O)CS(=O)(=O)C1c1ccc(C(F)(F)F)cc1)c1ccncc1 (stereo unspecified) .
Solution: > 100 µM

====

TGI values by entry
- Tested on: NCI/ADR-RES ovarian
- method.summary: NCI tumour cell line growth inhibition, 48 h

Worked cases, TGI given:
molecule	subject.of.test	TGI
CCc1n[nH]c(=O)n1-c1ccc2ccccc2c1	NCI/ADR-RES ovarian	> 100 µM
COC(=O)c1c(C)cc(OC)c(C/C=C(\C)CCCc2coc(C=C(C)C)c2)c1OC	NCI/ADR-RES ovarian	> 100 µM

Problem: Recall and state the measured TGI for Nc1nc(Cl)nc2c1ncn2C1CC(O)C(CO)O1 (stereo not given) .
Solution: > 100 µM

Problem: Recall and state the measured TGI for Cc1nc2sccn2c1-c1nc2sccn2c1/C=C1/C(=O)Nc2ccccc21 .
Solution: > 100 µM
